Each record here notes measured growth.
test system: U251 CNS; assay: NCI-60 one-dose screen, 48 h (100 = growth as untreated, 0 = no growth, -100 = all killed); details: 10 µM unless noted
Compounds without any hit were thinned out: in the full panel of roughly 83,000, 20% have a hit. Calls of active or inactive are those of the source. Rule for the calls: active = growth percent below 10; inactive = the rest.
property-name: growth

compound: O=[N+]([O-])c1ccc2nc(N/N=C/c3ccc(O)cc3)sc2c1
value-reported: 45.9% (inactive)
//
compound: CC1=CN2C(=NC3=C(CCCC/C3=C\c3ccccc3)C2c2ccccc2)S1 (centres undefined)
value-reported: 96.5% (inactive)
//
compound: COc1ccccc1/C=C/C(=O)/C=C/c1ccccc1O
value-reported: -78.9% (active)
//
compound: O=c1[nH]c(=S)c2c(n1CCCO)CCC2
value-reported: 101% (inactive)
